Cited source for all entries: paper PMC11200976

What concentration that renders FLC fungicidal (no recovery on YPD solid medium) was measured for each of the following?
Test system: C. albicans
Assay: Dose–matrix titration assays (synergy, with YPD recovery plates)
Assay type: cell-based, Candida albicans
Conditions: FLC ≤4 μg/mL; YPD, 30 °C, 48 h
Counter-ions that a name gives are not always drawn.

Cc1ccc(Sc2ccccc2N2CCNCC2)c(C)c1 = ≤ 3.125 µM
CCCCCCCCN=c1ccn(CCCCCCCCCCn2ccc(=NCCCCCCCC)cc2)cc1 [octenidine dihydrochloride] = ≤ 3.125 µM

Now examine the next entry.
Requested read-out: concentration that renders FLC fungicidal (no recovery on YPD solid medium). Entry: N=C(NCCCCCCNC(=N)NC(=N)Nc1ccc(Cl)cc1)NC(=N)Nc1ccc(Cl)cc1.O=C(O)[C@H](O)[C@@H](O)[C@H](O)[C@H](O)CO.O=C(O)[C@H](O)[C@@H](O)[C@H](O)[C@H](O)CO [chlorhexidine digluconate]
≤ 3.125 µM

---

Experiment: Acute toxicity, Up-and-Down procedure (OECD 425), intraperitoneal
Type: in vivo
Settings: C57BL/6, mouse, in vivo, ip, mice
So I've got a bunch of compounds here, and I need their LD50 at 48 h values.
Answers are plain numbers, in mg/kg.

Dear colleague, could you send me LD50 at 48 h for each of the items below? Thanks.
1. C[C@@H]1CC[C@@]2(OC1)O[C@H]1C[C@H]3[C@@H]4CC=C5C[C@@H](O[C@@H]6O[C@H](CO)[C@@H](O[C@@H]7O[C@@H](C)[C@H](O)[C@@H](O)[C@H]7O)[C@H](O)[C@H]6O[C@@H]6O[C@@H](C)[C@H](O)[C@@H](O)[C@H]6O)CC[C@]5(C)[C@H]4CC[C@]3(C)[C@H]1[C@@H]2C
2. O=C(O)C[C@H](O)C[C@H](O)/C=C/c1c(C2CC2)nc2ccccc2c1-c1ccc(F)cc1
3. Oc1cc(Cl)ccc1Oc1ccc(Cl)cc1Cl
4. COC1=C2C[C@@H](C)C[C@H](OC)[C@H](O)[C@@H](C)/C=C(\C)[C@H](OC(N)=O)[C@@H](OC)/C=C\C=C(/C)C(=O)NC(=CC1=O)C2=O

1. 32
2. 104
3. 62.6
4. 19

Quick request: LD50 at 48 h for each listed item, please.
1. Cc1ccc(Sc2ccccc2N2CCNCC2)c(C)c1
2. CC[C@@H]1/C=C(\C)C[C@H](C)C[C@H](OC)[C@H]2O[C@@](O)(C(=O)C(=O)N3CCCC[C@H]3C(=O)O[C@H](/C(C)=C/[C@@H]3CC[C@H](Cl)[C@H](OC)C3)[C@H](C)[C@@H](O)CC1=O)[C@H](C)C[C@@H]2OC

48.3
42

---

Test system: C. albicans
Test: Dose–matrix titration assays (synergy, with YPD recovery plates)
Type: cell-based, Candida albicans
Conditions: FLC ≤4 μg/mL; YPD, 30 °C, 48 h
Exercise: state measured concentration that renders FLC fungicidal (no recovery on YPD solid medium) for each of the compounds provided.

C[C@@H]1CC[C@@]2(OC1)O[C@H]1C[C@H]3[C@@H]4CC=C5C[C@@H](O[C@@H]6O[C@H](CO)[C@@H](O[C@@H]7O[C@@H](C)[C@H](O)[C@@H](O)[C@H]7O)[C@H](O)[C@H]6O[C@@H]6O[C@@H](C)[C@H](O)[C@@H](O)[C@H]6O)CC[C@]5(C)[C@H]4CC[C@]3(C)[C@H]1[C@@H]2C = ≤ 3.125 µM

Turning now to a further compound:
Given the entry COCc1c(C(C)C)nc(C(C)C)c(/C=C/[C@@H](O)C[C@@H](O)CC(=O)O)c1-c1ccc(F)cc1 [cerivastatin sodium] , what concentration that renders FLC fungicidal (no recovery on YPD solid medium) was observed with C. albicans?
≤ 3.125 µM
